Where do these numbers come from? They come from patent US20070078620A1.

assay.method.text: Distribution of a lipophilic compound (tacrolimus) after periadventitial delivery to coronary arteries, LC/MS of tissue
Type: in vivo, swine
measurement.parameters: swine, in vivo, mean level of tacrolimus in confirmed injected arteries
measured.endpoint: concentration at 48 h (ng/g)
All answers are understood in ng/g, so give the number only.

Entry C=CC[C@@H]1/C=C(\C)C[C@H](C)C[C@H](OC)[C@H]2O[C@@](O)(C(=O)C(=O)N3CCCC[C@H]3C(=O)O[C@H](/C(C)=C/[C@@H]3CC[C@@H](O)[C@H](OC)C3)[C@H](C)[C@@H](O)CC1=O)[C@H](C)C[C@@H]2OC : reported concentration at 48 h = ?
55

* * *

assay.method.text: Distribution of a lipophilic compound (tacrolimus) after periadventitial delivery to coronary arteries, LC/MS of tissue
Type: in vivo, swine
measurement.parameters: swine, in vivo, mean concentration within 1 cm of known injection sites
Description: Distribution of a lipophilic compound (tacrolimus): Eight swine underwent angiography. […] The two remaining arteries served as untreated controls. An untreated heart was used as a negative control. At 48 hours arteries were dissected from the musculature and perivascular fat, cut into 5 mm sections and analyzed by Liquid Chromatography/Mass Spectrometry against tacrolimus calibration standards containing homogenized untreated porcine heart tissue.
measured.endpoint: concentration at 48 h
# output: numeric value plus its unit

Entry C=CC[C@@H]1/C=C(\C)C[C@H](C)C[C@H](OC)[C@H]2O[C@@](O)(C(=O)C(=O)N3CCCC[C@H]3C(=O)O[C@H](/C(C)=C/[C@@H]3CC[C@@H](O)[C@H](OC)C3)[C@H](C)[C@@H](O)CC1=O)[C@H](C)C[C@@H]2OC : reported concentration at 48 h = ?
64 ng/g

* * *

assay.method.text: Distribution of a lipophilic compound (tacrolimus) after periadventitial delivery to coronary arteries, LC/MS of tissue
Type: in vivo, swine
measurement.parameters: swine, in vivo, mean level of tacrolimus in uninjected arteries of treated hearts
measured.endpoint: concentration at 48 h (ng/g)
All answers are understood in ng/g, so give the number only.

Entry C=CC[C@@H]1/C=C(\C)C[C@H](C)C[C@H](OC)[C@H]2O[C@@](O)(C(=O)C(=O)N3CCCC[C@H]3C(=O)O[C@H](/C(C)=C/[C@@H]3CC[C@@H](O)[C@H](OC)C3)[C@H](C)[C@@H](O)CC1=O)[C@H](C)C[C@@H]2OC [tacrolimus] : reported concentration at 48 h = ?
27
